What AIRE transcriptional activation functional score was measured for each of the following?
B1: library; numbered along this chain (parent)
chain: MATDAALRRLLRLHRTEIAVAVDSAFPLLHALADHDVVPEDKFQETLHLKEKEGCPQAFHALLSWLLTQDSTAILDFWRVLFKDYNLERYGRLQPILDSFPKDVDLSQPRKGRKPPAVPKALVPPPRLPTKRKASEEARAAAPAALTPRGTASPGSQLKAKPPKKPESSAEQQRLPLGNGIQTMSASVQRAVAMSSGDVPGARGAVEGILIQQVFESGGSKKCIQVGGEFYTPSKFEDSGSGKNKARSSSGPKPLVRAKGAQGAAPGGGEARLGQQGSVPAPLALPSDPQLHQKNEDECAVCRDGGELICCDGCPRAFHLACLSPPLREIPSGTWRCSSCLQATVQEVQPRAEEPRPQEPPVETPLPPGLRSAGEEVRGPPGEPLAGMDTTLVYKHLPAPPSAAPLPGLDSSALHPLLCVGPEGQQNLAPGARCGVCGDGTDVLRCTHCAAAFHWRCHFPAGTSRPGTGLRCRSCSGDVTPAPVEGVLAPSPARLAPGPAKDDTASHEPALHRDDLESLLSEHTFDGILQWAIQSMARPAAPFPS

variants of: B1; test: AIRE transcriptional activation functional score (insulin promoter-GFP; nonsense median 0, synonymous median 1) (normalised score); higher = higher AIRE activity (more reporter activation); conditions: with insulin promoter-GFP reporter in HEK293

Given the entry G431K , report its measured AIRE transcriptional activation functional score.
0.71

Given the entry T390Q , report its measured AIRE transcriptional activation functional score.
0.868

Given the entry A399M , report its measured AIRE transcriptional activation functional score.
1.22

Given the entry L81K , report its measured AIRE transcriptional activation functional score.
-1.81

Given the entry L488V , report its measured AIRE transcriptional activation functional score.
1.09

Given the entry F459V , report its measured AIRE transcriptional activation functional score.
0.585

Given the entry I309C , report its measured AIRE transcriptional activation functional score.
0.782

Given the entry K42Q , report its measured AIRE transcriptional activation functional score.
0.53

Given the entry P422E , report its measured AIRE transcriptional activation functional score.
0.766

Given the entry L63T , report its measured AIRE transcriptional activation functional score.
-0.37

Given the entry A140D , report its measured AIRE transcriptional activation functional score.
1.07

Given the entry C314S , report its measured AIRE transcriptional activation functional score.
1.07

Given the entry S491A , report its measured AIRE transcriptional activation functional score.
0.995

Given the entry L370P , report its measured AIRE transcriptional activation functional score.
1.08

Given the entry T147S , report its measured AIRE transcriptional activation functional score.
0.771

Given the entry R190L , report its measured AIRE transcriptional activation functional score.
0.356

Given the entry S217Y , report its measured AIRE transcriptional activation functional score.
0.669

Given the entry C340W , report its measured AIRE transcriptional activation functional score.
0.727

Given the entry L308N , report its measured AIRE transcriptional activation functional score.
0.45

Given the entry F59Y , report its measured AIRE transcriptional activation functional score.
-0.0924

Given the entry L66W , report its measured AIRE transcriptional activation functional score.
0.0325

Given the entry K133D , report its measured AIRE transcriptional activation functional score.
0.12
